These measurements were taken from PubChem BioAssay (NCI).

tested on: SK-MEL-2 melanoma; assay: NCI-60 one-dose screen, 48 h (100 = growth as untreated, 0 = no growth, -100 = all killed); settings: 10 µM unless noted
About 83,000 compounds went through this panel and 20% of them were active in at least one assay; those are over-represented in the sample as a whole.
assay readout: growth (%)
Please respond with the number in % and leave the unit unwritten.

The cases that follow already have their growth on record.
molecule	target	units text	growth
CC(=O)Oc1ccccc1C(=O)[Se]C(=NC1CCCCC1)NC1CCCCC1	SK-MEL-2 melanoma	%	-74.5
CC(=O)Oc1ccc(/C=C/C(=O)N[C@@H](Cc2ccccc2)C(O)C(=O)NCc2ccccc2)cc1OC(C)=O (stereo partly drawn)	SK-MEL-2 melanoma	%	110
Cn1cc(-c2cc3nc(-c4cn(C)c5ncc(Br)cc45)cc(N)n3n2)c2ccccc21	SK-MEL-2 melanoma	%	-73.6
COc1ccc(C(=O)/C=C/c2ccc(OCc3ccccc3)c(OC)c2)cc1OC	SK-MEL-2 melanoma	%	72.7
COc1ccc(-c2ccnc(SCc3cc4cc(OC)ccc4[nH]c3=O)n2)cc1	SK-MEL-2 melanoma	%	12.8
O=C1CC(Sc2n[nH]c(-c3ccncc3)n2)C(=O)N1c1ccc(Br)cc1 (stereo not drawn)	SK-MEL-2 melanoma	%	116

INPUT: For `COc1ccc2[nH]cc(-c3nnc(N)nc3-c3c[nH]c4ncc(Br)cc34)c2c1` , what is its reported growth?
OUTPUT: 104

INPUT: Can you check `COc1ccc(C(=O)/C=C/c2ccc(OC)c(OCc3ccccc3)c2)cc1OC` next?
OUTPUT: 55.8

---

system: T-47D breast; assay: NCI-60 one-dose screen, 48 h; details: 10 µM unless noted
This is part of a sample that, as a whole, favours compounds with a hit. Of some 83,000 tested, about 20% had one in any assay. Calls of active or inactive are those of the source. How the source made its calls: active means growth percent below 10; inactive means the rest.
The reply should be one of these categories: Y = active, N = inactive

INPUT: Recorded test call requested for CC1=C(C(=O)c2ccccc2)C(c2cccc3ccccc23)n2c(nc3ccccc32)N1 (stereo not drawn)
OUTPUT: N

---

system: T-47D breast; assay: NCI-60 one-dose screen, 48 h (100 = growth as untreated, 0 = no growth, -100 = all killed); details: 10 µM unless noted
This is part of a sample that, as a whole, favours compounds with a hit. Of some 83,000 tested, about 20% had one in any assay.
assay readout: growth (%)
Please respond with the number in % and leave the unit unwritten.

The cases that follow already have their growth on record.
compound	target	units text	growth
C#CCOc1ccc(/C=N/Nc2nc(-c3cc4cc(OC)ccc4oc3=O)cs2)cc1OC	T-47D breast	%	51.8
Nc1nc(-c2ccccc2)c(N=Nc2ccc([N+](=O)[O-])cc2Cl)s1	T-47D breast	%	40.7
COc1ccc(-c2ccnc(SCc3cc4cc(OC)ccc4[nH]c3=O)n2)cc1	T-47D breast	%	2.83
COc1cc2oc(-c3cccc(NC(=O)[C@H](CC(N)=O)NC(=O)OC(C)(C)C)c3)cc(=O)c2c(OC)c1OC	T-47D breast	%	65.7
Cc1ccc([C@H]2C(C(=O)c3ccc(Cl)cc3)C3(N[C@@H]2c2ccccc2)C(=O)Nc2ccc(Cl)cc23)cc1 (some centres undefined)	T-47D breast	%	31.6
N#Cc1c(-c2ccc(Br)cc2)nc2n[nH]c(-c3ccc(Br)cc3)c2c1-c1ccc(C(F)(F)F)cc1	T-47D breast	%	3.49
CCCSc1nc(Nc2ccc(S(N)(=O)=O)cc2)c(C#N)c(-c2ccc(Cl)cc2)n1	T-47D breast	%	86.5
C[C@H]1CN(C(=O)c2ccc3c(NNC(=O)c4ccncn4)nc4cc(F)c(F)cc4n23)CCN1	T-47D breast	%	21.3

Let us examine a further case.
INPUT: For `Cc1ccc(NCC(=O)Cn2cc(COc3ccc(C=Nc4cnc5ccccc5c4)cc3)nn2)cc1` , what is its reported growth?
OUTPUT: 105
